// provenance: patent US20140135319A1

- Assay target: human kinase Mps-1 (Homo sapiens)
- Construct: N-terminally GST-tagged human full length recombinant Mps-1 kinase; GST (N)
- Test protocol: Mps-1 kinase assay (TR-FRET)
- Measurement context: GST-tagged human full length recombinant Mps-1; 10 μM ATP; 1 μM peptide substrate; 60 min at 22° C.
Consider the following molecules; for each one, report its pIC50.
Answers are plain numbers, as −log10 of the molar value.

These solved cases illustrate the format of a correct answer.
pIC50 measured on O=C(NC1CC1)c1ccc(-c2cnc3c(NCC4CCCO4)nc(C4=CCOCC4)cn23)cc1Cl (stereo not shown) = 6.98

// field: pIC50; key: `Cn1nccc1CNc1nc(C2=CCOCC2)cn2c(-c3ccc(C(=O)NC4CC4)c(F)c3)cnc12` ; value = 7.80

Entry `O=C(NC1CC1)c1ccc(-c2cnc3c(NCc4cccs4)nc(-c4ccncc4)cn23)cc1` — recorded pIC50 = 8.39

pIC50 reading for `CC(C)CNc1nc(-c2ccc(S(=O)(=O)n3cccc3)cc2)cn2c(-c3ccc(C(=O)NC4CC4)cc3)cnc12` : 7.88

Record summary for `CC(C)CNc1nc(C2=CCOCC2)cn2c(-c3ccc(C(=O)NC4CC4)c(Cl)c3)cnc12` : reported pIC50 = 7.94

State recorded pIC50 for all listed molecules.
1. NC/C=C/CCNc1nc(-c2ccccc2)cn2c(-c3ccc(C(=O)NC4CC4)cc3)cnc12
2. O=C(NC1CC1)c1ccc(-c2cnc3c(NCc4ccccc4F)nc(-c4ccncc4)cn23)cc1

Reply:
8.36
9.00

###

- Assay target: human kinase Mps-1 (Homo sapiens, UniProt P33981)
- Construct: N-terminally GST-tagged human full length recombinant Mps-1 kinase; GST (N); purchased Invitrogen, Karslruhe, Germany PV4071
- Test protocol: Mps-1 kinase assay (TR-FRET)
- Type: biochemical
- Measurement context: GST-tagged human full length recombinant Mps-1; 10 μM ATP; 1 μM peptide substrate; 60 min at 22° C.
pIC50: −log10 of the molar value.
Assign class 1 to entries whose pIC50 meets or exceeds 8; assign class 0 to the rest.

Ask: Does the compound Cc1cc(-c2cnc3c(NCC4CNC(=O)C4)nc(C4=CCOCC4)cn23)ccc1C(=O)NC1CC1 (stereo not shown) have recorded pIC50 that is 8 or more?
Reply: class 0

Further cases:
Ask: State whether the measured pIC50 reaches 8, counting equality as reaching it, for `CC(C)CNc1nc(-c2ccn[nH]2)cn2c(-c3ccc(C(=O)NC4CC4)cc3)cnc12`
Reply: class 1

Ask: Test whether the compound `Cc1cc(-c2cnc3c(NCCC(F)(F)F)nc(-c4cnn(C)c4)cn23)ccc1C(=O)NC1CC1` records pIC50 of 8 or higher.
Reply: class 1

Ask: I'd appreciate it if you could say whether `O=C(NC1CC1)c1ccc(-c2cnc3c(NCc4ccccc4)nc(-c4ccncc4)cn23)cc1` has pIC50 at least equal to 8.
Reply: class 1

Ask: Reported pIC50 at or above 8? `Cc1cc(-c2cnc3c(NCC(C)(C)O)nc(Oc4cccc(F)c4)cn23)ccc1C(=O)NC1CC1`
Reply: class 1

###

- Assay target: human kinase Mps-1 (Homo sapiens, UniProt P33981)
- Construct: N-terminally GST-tagged human full length recombinant Mps-1 kinase; GST (N)
- Test protocol: Mps-1 kinase assay (TR-FRET)
- Measurement context: GST-tagged human full length recombinant Mps-1; 10 μM ATP; 1 μM peptide substrate; 60 min at 22° C.
Measured parameter: pIC50
One number for each entry, as −log10 of the molar value.

Hi, could you look up pIC50 for each item in my list?
1. CS(=O)(=O)CCCNc1nc(-c2ccncc2)cn2c(-c3ccc(C(=O)NC4CC4)cc3)cnc12
2. O=C(NC1CC1)c1ccc(-c2cnc3c(NCCC(F)(F)F)nc(-c4ccn[nH]4)cn23)cc1Cl
3. O=C(NC1CC1)c1ccc(-c2cnc3c(NCCC(F)(F)F)nc(-c4ccoc4)cn23)cc1Cl
4. O=C(NC1CC1)c1ccc(-c2cnc3c(NCCC(F)(F)F)nc(-c4ccncc4)cn23)cc1
5. C#CCNc1nc(-c2ccccc2)cn2c(-c3ccc(C(=O)NC4CC4)cc3)cnc12

Reply:
1: 7.67; 2: 7.85; 3: 8.09; 4: 8.96; 5: 8.13

###

- Assay target: human kinase Mps-1 (Homo sapiens, UniProt P33981)
- Construct: N-terminally GST-tagged human full length recombinant Mps-1 kinase; GST (N)
- Test protocol: Mps-1 kinase assay (TR-FRET)
- Measurement context: GST-tagged human full length recombinant Mps-1; 10 μM ATP; 1 μM peptide substrate; 60 min at 22° C.
- Procedure: The human kinase Mps-1 phosphorylates a biotinylated substrate peptide. Detection of the phosphorylated product is achieved by time-resolved fluorescence resonance energy transfer (TR-FRET) from Europium-labelled anti-phospho-Serine/Threonine antibody as donor to streptavidin labelled with cross-linked allophycocyanin (SA-XLent) as acceptor. Compounds are tested for their inhibition of the kinase activity. […]
Measured parameter: IC50 (nM)
Give bare numbers, in nM.

GET /value?item= NS(=O)(=O)CCNc1nc(-c2ccncc2)cn2c(-c3ccc(C(=O)NC4CC4)cc3)cnc12 [Example 3-35] &field=IC50 returns 1.9

Your task in this section: give IC50 for each listed record.
1. CC(C)CNc1nc(-c2cncc(F)c2)cn2c(-c3ccc(C(=O)NC4CC4)cc3)cnc12 [Example 1-21]
2. CC(C)CNc1nc(-c2ccccc2)cn2c(-c3ccc(C(=O)NC4CC4(C)C)cc3)cnc12 (stereo not shown) [Example 2-1]

Reply:
19.4
162

###

- Assay target: human kinase Mps-1 (Homo sapiens, UniProt P33981)
- Construct: N-terminally GST-tagged human full length recombinant Mps-1 kinase; GST (N)
- Test protocol: Mps-1 kinase assay (TR-FRET)
- Measurement context: GST-tagged human full length recombinant Mps-1; 10 μM ATP; 1 μM peptide substrate; 60 min at 22° C.
For each of the molecules below, state its pIC50.
Give bare numbers, as −log10 of the molar value.

Would you please look over these solved cases?
Measured pIC50 (human kinase Mps-1 (Homo sapiens, UniProt P33981)), entry `CC(C)CNc1nc(-c2ccc(F)nc2)cn2c(-c3ccc(C(=O)NC4CC4)cc3)cnc12` : 8.38

Per the reported human kinase Mps-1 (Homo sapiens, UniProt P33981) data, Cc1cc(-c2cnc3c(NCC4CN(C)CCO4)nc(C4=CCOCC4)cn23)ccc1C(=O)NC1CC1 (centres unmarked) has pIC50 of 6.53

The molecule `CC(C)(O)CNc1nc(-c2cccc(CC(N)=O)c2)cn2c(-c3ccc(C(=O)NC4CC4)cc3)cnc12` , tested on human kinase Mps-1 (Homo sapiens, UniProt P33981), showed pIC50 of 8.40

Bench note, human kinase Mps-1 (Homo sapiens, UniProt P33981): entry O=C(NC1CC1)c1ccc(-c2cnc3c(NCC4CCCO4)nc(-c4ccn[nH]4)cn23)cc1Cl (centres unmarked) , its pIC50 = 6.90

Item: C[S+]([O-])CCNc1nc(-c2ccncc2)cn2c(-c3ccc(C(=O)NC4CC4)cc3)cnc12 (centres unmarked) | System: human kinase Mps-1 (Homo sapiens, UniProt P33981) | pIC50: 7.71

pIC50 of `CC(C)CCNc1nc(-c2ccncc2)cn2c(-c3ccc(C(=O)NC4CC4)cc3)cnc12` , assay on human kinase Mps-1 (Homo sapiens, UniProt P33981), is 8.62

Entry `O=C(NC1CC1)c1ccc(-c2cnc3c(NCCOCCOCCO)nc(-c4ccccc4)cn23)cc1` under human kinase Mps-1 (Homo sapiens, UniProt P33981) had pIC50 of 7.75

Okay, next one:
Observed pIC50 on human kinase Mps-1 (Homo sapiens, UniProt P33981), entry `O=C(NC1CC1)c1ccc(-c2cnc3c(NCc4ccncc4)nc(-c4ccncc4)cn23)cc1` , equals 8.68

###

Give measured pIC50 for each item. Keep answers brief.
- Assay target: human kinase Mps-1 (Homo sapiens, UniProt P33981)
- Construct: N-terminally GST-tagged human full length recombinant Mps-1 kinase; GST (N)
- Sequence (P33981 1-857): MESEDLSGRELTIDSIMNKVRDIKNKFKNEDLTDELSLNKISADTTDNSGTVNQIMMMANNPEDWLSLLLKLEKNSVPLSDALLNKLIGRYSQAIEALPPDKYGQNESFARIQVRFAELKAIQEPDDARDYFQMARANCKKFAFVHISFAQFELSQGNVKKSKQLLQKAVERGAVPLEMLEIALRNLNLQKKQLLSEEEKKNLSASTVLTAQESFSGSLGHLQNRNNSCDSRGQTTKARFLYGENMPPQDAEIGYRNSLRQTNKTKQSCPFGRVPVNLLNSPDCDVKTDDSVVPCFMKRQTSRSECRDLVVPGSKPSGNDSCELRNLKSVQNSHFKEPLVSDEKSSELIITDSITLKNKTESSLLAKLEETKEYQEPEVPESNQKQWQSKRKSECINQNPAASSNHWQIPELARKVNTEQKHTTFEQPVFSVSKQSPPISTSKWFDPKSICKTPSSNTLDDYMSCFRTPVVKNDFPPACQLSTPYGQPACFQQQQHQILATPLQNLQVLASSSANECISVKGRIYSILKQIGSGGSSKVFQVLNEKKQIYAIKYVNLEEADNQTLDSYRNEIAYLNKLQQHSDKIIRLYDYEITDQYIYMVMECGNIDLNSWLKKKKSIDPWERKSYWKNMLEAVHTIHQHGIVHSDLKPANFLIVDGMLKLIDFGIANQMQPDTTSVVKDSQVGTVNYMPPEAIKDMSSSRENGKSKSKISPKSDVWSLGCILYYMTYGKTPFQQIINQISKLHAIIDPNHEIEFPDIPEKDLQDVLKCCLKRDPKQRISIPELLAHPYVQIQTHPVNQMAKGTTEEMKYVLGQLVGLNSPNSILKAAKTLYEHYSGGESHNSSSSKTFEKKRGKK
- Test protocol: Mps-1 kinase assay (TR-FRET)
- Measurement context: GST-tagged human full length recombinant Mps-1; 10 μM ATP; 1 μM peptide substrate; 60 min at 22° C.
- Method: The human kinase Mps-1 phosphorylates a biotinylated substrate peptide. Detection of the phosphorylated product is achieved by time-resolved fluorescence resonance energy transfer (TR-FRET) from Europium-labelled anti-phospho-Serine/Threonine antibody as donor to streptavidin labelled with cross-linked allophycocyanin (SA-XLent) as acceptor. Compounds are tested for their inhibition of the kinase activity. […]
Give bare numbers, as −log10 of the molar value.

For each of the compounds below, state pIC50.
1. CC(C)CNc1nc(-c2ccc3c(ccn3C)c2)cn2c(-c3ccc(C(=O)NC4CC4)cc3)cnc12
2. Cn1nccc1-c1cn2c(-c3ccc(C(=O)NC4CC4)c(Cl)c3)cnc2c(NCCCN)n1

Reply:
8.17
5.87

Parameter requested: pIC50. Apply to each item below.
1. CNC(=O)CCCCc1cn2c(-c3ccc(C(=O)NC4CC4)cc3)cnc2c(NCC(C)C)n1
2. CC(C)CNc1nc(CCC(C)(C)O)cn2c(-c3ccc(C(=O)NC4CC4)cc3)cnc12
3. Cc1cc(-c2cnc3c(NCCC(F)(F)F)nc(C4=CCNCC4)cn23)ccc1C(=O)NC1CC1

Reply:
8.19
8.16
7.89

Each compound below has a recorded value; state its pIC50.
1. CC(C)CNc1nc(-c2cnn(C)c2)cn2c(-c3ccc(C(=O)NC4CC4)cc3)cnc12
2. O=C(NC1CC1)c1ccc(-c2cnc3c(NCC4CCCO4)nc(-c4ccncc4)cn23)cc1 (centres unmarked)
3. Cn1nccc1CNc1nc(-c2ccncc2)cn2c(-c3ccc(C(=O)NC4CC4)c(F)c3)cnc12

Reply:
8.34
8.62
8.19
